Molecular target: alpha 2C receptor (Homo sapiens, UniProt P18825)
Construct: expressed in transfected cells; host or cells: NIH-3T3 cells
Sequence (P18825 1-462): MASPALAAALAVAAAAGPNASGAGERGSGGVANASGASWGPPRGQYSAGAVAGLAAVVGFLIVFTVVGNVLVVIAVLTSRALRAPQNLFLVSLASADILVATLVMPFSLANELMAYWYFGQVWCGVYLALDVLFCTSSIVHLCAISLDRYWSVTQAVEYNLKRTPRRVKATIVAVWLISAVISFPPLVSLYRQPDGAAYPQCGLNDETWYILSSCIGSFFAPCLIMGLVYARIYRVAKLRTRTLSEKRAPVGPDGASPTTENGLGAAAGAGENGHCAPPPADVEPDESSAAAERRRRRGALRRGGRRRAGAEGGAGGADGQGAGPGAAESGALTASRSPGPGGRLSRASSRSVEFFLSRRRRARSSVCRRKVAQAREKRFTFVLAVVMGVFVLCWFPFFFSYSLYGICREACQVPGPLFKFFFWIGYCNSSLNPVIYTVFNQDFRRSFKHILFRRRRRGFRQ
Experiment: RSAT (Receptor Selection and Amplification Technology) assay, alpha 2C
Assay type: cell-based
Conditions: NIH-3T3 cells cotransfected with receptor, Gq/i5 and beta-galactosidase; nd = not determinable (>10,000); read-out: RSAT EC50 (nM) Alpha 2C
readout: EC50

Look up EC50 with alpha 2C receptor (Homo sapiens, UniProt P18825) for this compound: Clc1cccc(C(CCc2ccccc2)NC2=NCCN2)c1Cl (stereo not shown)
> 10000 nM

Origin of the recorded values: patent US8486985B2
